# credit: patent US20190031665A1

- Study Target: human indoleamine 2,3-dioxygenase 1 (hIDO1) (Homo sapiens, UniProt P14902)
- Construct: His tag (N); purchased BPS Bioscience, San Diego, Calif., USA; host or cells: E. coli
- Sequence (P14902 whole entry): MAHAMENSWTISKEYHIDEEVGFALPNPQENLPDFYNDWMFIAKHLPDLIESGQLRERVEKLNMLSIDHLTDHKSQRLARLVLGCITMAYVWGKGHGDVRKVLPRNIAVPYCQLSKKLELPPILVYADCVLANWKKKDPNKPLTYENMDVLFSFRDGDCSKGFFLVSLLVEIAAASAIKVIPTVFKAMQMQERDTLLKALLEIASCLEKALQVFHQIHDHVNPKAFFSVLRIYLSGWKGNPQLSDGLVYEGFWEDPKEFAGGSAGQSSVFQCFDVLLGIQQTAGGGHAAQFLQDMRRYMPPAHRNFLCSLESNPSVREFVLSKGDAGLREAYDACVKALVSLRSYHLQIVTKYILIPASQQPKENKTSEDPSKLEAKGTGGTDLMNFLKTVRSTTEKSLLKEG
- Test Summary: In-vitro human indoleamine 2,3-dioxygenase 1 (IDO1) enzyme assay
- Type: biochemical
- Study Conditions: hIDO1 enzyme at 1.0 μM concentration
Exercise: for every item that follows, state its recorded inhibition at 1 µM.

q: Query (compound): CC1=C(c2ccccc2)C(CC(O)c2cccc(Cl)c2)n2cncc21 (stereo not drawn) ; field requested: inhibition at 1 µM
a: ≥ 50%

q: Now try CC(C)C1=C(c2ccccc2)C(CC(=O)C2CCCCC2)n2cncc21 (stereo not drawn) .
a: ≤ 50%

q: Now try CC1=C(c2ccccc2)C(CC(=O)c2ccc(N3CCCCC3)cc2)n2cncc21 (stereo not drawn) .
a: ≤ 50%

q: Now try COc1ccc(C2=C(C)c3cncn3C2CC(=O)C2CCCCC2)cc1 (stereo not drawn) .
a: ≤ 50%

q: Now try COc1ccccc1C(=O)CC1C(c2ccccc2)=C(C)c2cncn21 (stereo not drawn) .
a: ≤ 50%

q: Now try CCCNC(=O)CC1C(c2ccccc2)=C(C)c2cncn21 (stereo not drawn) .
a: ≤ 50%

q: Now try CC1=C(c2ccccc2)C(CC(O)c2ccc(-c3ccncc3)cc2)n2cncc21 (stereo not drawn) .
a: ≤ 50%

q: Now try CNC(=O)c1ccc(C(=O)CC2C(c3ccccc3)=C(C)c3cncn32)cc1 (stereo not drawn) .
a: ≥ 50%

q: Now try CC1=C(c2ccccc2)C(CC(O)c2ccc(Br)cc2)n2cncc21 (stereo not drawn) .
a: ≤ 50%

q: Now try COC(=O)c1ccc(C(=O)CC2C(c3ccccc3)=C(C)c3cncn32)cc1 (single isomer, unassigned; isomer-i) [Example 71] .
a: ≥ 50%

q: Now try COC(=O)c1ccc(C(=O)CC2C(c3ccccc3)=C(C)c3cncn32)cc1 (stereo not drawn) [Example 18] .
a: ≥ 50%

q: Now try CC1=C(c2ccccc2)C(CC(=O)c2ccc(C(=O)Nc3cccnc3)cc2)n2cncc21 (stereo not drawn) .
a: ≥ 50%

q: Now try CC1=C(c2ccccc2)C(CC(=O)C2CCC(c3ccccc3)CC2)n2cncc21 (stereo not drawn) .
a: ≥ 50%

q: Now try CCOC(=O)CC1C(c2ccccc2)=C(C)c2cncn21 (stereo not drawn) .
a: ≤ 50%

q: Now try CC1=C(c2ccccc2)C(CC(=O)c2ccc3c(c2)CCCC3)n2cncc21 (stereo not drawn) .
a: ≥ 50%

q: Now try CC1=C(c2ccccc2)C(CC(O)C2CCN(C(=O)Cc3ccccc3)CC2)n2cncc21 (stereo not drawn) .
a: ≥ 50%

q: Now try CC1=C(c2ccccc2)C(CC(O)C2CCN(C(=O)c3ccncc3)CC2)n2cncc21 (stereo not drawn) .
a: ≤ 50%

q: Now try CC1=C(c2ccccc2)C(CC(=O)c2ccc(-c3ccc(C)cc3)cc2)n2cncc21 (stereo not drawn) .
a: ≥ 50%
